Please go through the items and note down their koff.
Target: T1, cynomolgus soluble urokinase plasminogen activator receptor (suPAR) (cynomolgus, UniProt Q9GK78 23-303, limits assumed)
T1 construct: Target antigen of the scFv off-rate screen; also called cynomolgus suPAR; cynomolgus uPAR
T1 sequence (Q9GK78 23-303 limits assumed): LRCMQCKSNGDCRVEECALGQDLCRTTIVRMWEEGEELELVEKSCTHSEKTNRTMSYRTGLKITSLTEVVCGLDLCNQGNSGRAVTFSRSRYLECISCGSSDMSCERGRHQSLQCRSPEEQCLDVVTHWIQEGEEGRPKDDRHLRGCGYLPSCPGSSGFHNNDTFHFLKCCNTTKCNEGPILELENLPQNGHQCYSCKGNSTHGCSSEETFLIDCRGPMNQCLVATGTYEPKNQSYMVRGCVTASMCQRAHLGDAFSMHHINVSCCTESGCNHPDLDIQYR
Experiment: BLI (Octet) off-rate screen of scFv clones
Please reply with the bare figure in s⁻¹ and do not write the unit itself.

## Task Value lookup for koff; key = suPAR_DB06_E09 (scFv, V domains shown) VH: QVQLVQSGAEVKKPGASVKVSCKASGHTFTNYYVHWVRQAPGQGLEWMGWIDHENGSTSYDQKFQGRVTMTRDTSTSTVYMELSSLRSEDTAVYYCARGYDVDWFVYWGQGTLVTVSS VL: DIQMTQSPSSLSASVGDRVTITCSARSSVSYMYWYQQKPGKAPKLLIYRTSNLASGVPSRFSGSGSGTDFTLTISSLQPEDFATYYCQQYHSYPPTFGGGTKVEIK
## Result 0.000301

## Task Suppose we examine the binder suPAR_DB06_D07 (scFv, V domains shown) VH: QVQLVQSGAEVKKPGASVKVSCKASGYTFTNYYMHWVRQAPGQGLEWMGWIDHEGGNTIYAQKFQGRVTMTRDTSTSTVYMELSSLRSEDTAVYYCARGYDVDWFVYWGQGTLVTVSS VL: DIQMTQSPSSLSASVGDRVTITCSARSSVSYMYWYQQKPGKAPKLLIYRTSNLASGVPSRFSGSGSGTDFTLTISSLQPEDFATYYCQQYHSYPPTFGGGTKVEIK ; what koff value has been reported?
## Result 0.000565

## Task What value of measured koff is listed for suPAR_DB06_G02 (scFv, V domains shown) VH: QVQLVQSGAEVKKPGASVKVSCKASGYNITDYYIHWVRQAPGQGLEWMGWIDPENGSTIYDQKFQGRVTMTRDTSTSTVYMELSSLRSEDTAVYYCARGYDVDWFVYWGQGTLVTVSS VL: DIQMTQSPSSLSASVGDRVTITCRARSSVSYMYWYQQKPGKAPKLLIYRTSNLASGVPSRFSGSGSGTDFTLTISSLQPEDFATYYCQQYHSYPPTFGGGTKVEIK ?
## Result 0.000375

## Task Which koff value is on record for suPAR_DB06_F08 (scFv, V domains shown) VH: QVQLVQSGAEVKKPGASVKVSCKASGYTFTGNYVHWVRQAPGQGLEWMGWIDHSNGNTIYDQKFQGRVTMTRDTSTSTVYMELSSLRSEDTAVYYCARGYDVDWFVYWGQGTLVTVSS VL: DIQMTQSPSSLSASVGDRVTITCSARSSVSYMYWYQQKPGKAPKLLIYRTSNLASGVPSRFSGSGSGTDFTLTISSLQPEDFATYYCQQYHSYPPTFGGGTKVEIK ?
## Result 0.000537

## Task Would you mind telling me what koff value was observed for suPAR_DB06_C07 (scFv, V domains shown) VH: QVQLVQSGAEVKKPGASVKVSCKASGYTFTNYYMHWVRQAPGQGLEWMGWIDPNGGGTQYAQKFQGRVTMTRDTSTSTVYMELSSLRSEDTAVYYCARGYDVDWFVYWGQGTLVTVSS VL: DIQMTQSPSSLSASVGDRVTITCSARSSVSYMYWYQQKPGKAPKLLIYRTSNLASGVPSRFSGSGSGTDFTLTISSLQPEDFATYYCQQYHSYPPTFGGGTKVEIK ?
## Result 0.000387

Reference source: patent US20250215104A1
